Reference for the values: the Human Domainome abundance scans (Beltran et al. 2025)

B1: Peroxisome proliferator-activated receptor delta, residues 71 to 145; numbered along this chain, Q03181 (parent)
chain: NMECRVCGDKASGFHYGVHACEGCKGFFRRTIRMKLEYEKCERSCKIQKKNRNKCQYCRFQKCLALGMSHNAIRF

# Variants of: B1
# Assay Protocol: abundance fitness (aPCA) (normalised: wild type 0, dead -1); higher = more abundant; growth selection in yeast, the domain comes from the species named
# Reported Conditions: Homo sapiens
Parameter: abundance fitness

Here are 10 variants together with their reported answers.
{"columns": ["Ordered Residues", "abundance fitness"],
 "data": [
  ["NMECRSCGDKASGFHYGVHACEGCKGFFRRTIRMKLEYEKCERSCKIQKKNRNKCQYCRFQKCLALGMSHNAIRF", -1.07],
  ["NMECRVCGDKASGFHYGVHACEGCKGFFRRTIRMKLEYEKCERSCKIQKKNRNKCQYCRFQKCLALGMSWNAIRF", -0.177],
  ["NMECRVCGDKASGFHYGVHACEGCKGFFRRTIRMKLEYEKCERSCKIQKKNRNKCQYCRFQKCLNLGMSHNAIRF", -0.026],
  ["NMECRVCGDKASGFHYGVHACEGCKGFFRRTIRGKLEYEKCERSCKIQKKNRNKCQYCRFQKCLALGMSHNAIRF", -0.033],
  ["NMECRVCGDKMSGFHYGVHACEGCKGFFRRTIRMKLEYEKCERSCKIQKKNRNKCQYCRFQKCLALGMSHNAIRF", -0.337],
  ["NMECRVCGDKASGFHYGVHACEGCKGFFRRTIRMKLEYEKCERSCKIQKKNRNKCQYCRFQKCLALGMSHNAHRF", -0.017],
  ["NMECRVCGDKASGFHYGVHACEGCKGFFRRTIRMKLEYEKCERSCKIQKKNRNICQYCRFQKCLALGMSHNAIRF", -0.031],
  ["NMECRVCGDKASGFHYGVHACEGCKGFFRPTIRMKLEYEKCERSCKIQKKNRNKCQYCRFQKCLALGMSHNAIRF", -1.05],
  ["NMECRVCGDKASGFHYGVHACEGCKGFFRRTIRMKLEYEKCERYCKIQKKNRNKCQYCRFQKCLALGMSHNAIRF", 0.061],
  ["NMECRVCGDKASGFHYGVHACEGCKGFFRRTIRMKLEYEKPERSCKIQKKNRNKCQYCRFQKCLALGMSHNAIRF", -0.093]
]}

Items follow; give abundance fitness for each.
1. NMECRVCGDKASGFHYGVHACEGCKGFFRRTIRMKLEYEKCERSCKIQKKNRNKCQYCRFQKCLALGMSENAIRF
2. NMEHRVCGDKASGFHYGVHACEGCKGFFRRTIRMKLEYEKCERSCKIQKKNRNKCQYCRFQKCLALGMSHNAIRF
3. NMECRVCGDKASGFHYGVHACEGCKGFFRRTIRMKLEYEKCERSCKIQKKNRNKCQYCRFQKCLALGFSHNAIRF
4. NMEPRVCGDKASGFHYGVHACEGCKGFFRRTIRMKLEYEKCERSCKIQKKNRNKCQYCRFQKCLALGMSHNAIRF
5. NMECRVCGDKASGFHYGVHACEGCKGFFRRTIRMKLEYEKCERSCKIQKKNRNKCQYCRFQKCCALGMSHNAIRF

*A*
0.172
-0.576
-0.529
-1.07
-0.16
